Data provenance: patent US6770596B1

- System: large crabgrass (Digitaria sanguinalis, DIS)
- test method notes: Post-emerge test, large crabgrass
- Assay type: in vivo
- condition set: 250 g ai/ha, 14 days after application, rating scale 0-100 (0 no damage, 100 complete death)
metric name: Post-emerge Herbicidal Activity DIS (phytotoxicity rating)
Answer with the value's number alone.

Request: Tell me its Post-emerge Herbicidal Activity DIS (phytotoxicity rating) given CC(C)C1C(=O)Nc2c3c(cc(F)c2-n2c(=O)cc(C(F)(F)F)n(C)c2=O)OCC(=O)N31 (stereo not shown) [1-77] as the entry.
Response: 0

Request: Tell me its Post-emerge Herbicidal Activity DIS (phytotoxicity rating) given CCC1C(=O)Nc2c3c(cc(F)c2-n2c(=O)cc(C(F)(F)F)n(C)c2=O)OCC(=O)N31 (stereo not shown) [1-4] as the entry.
Response: 0

Request: Tell me its Post-emerge Herbicidal Activity DIS (phytotoxicity rating) given CC1Oc2cc(F)c(-c3nn(C)c(OC(F)F)c3Cl)c3c2N(CC(=O)N3)C1=O (stereo not shown) [1-56] as the entry.
Response: 100

Request: Tell me its Post-emerge Herbicidal Activity DIS (phytotoxicity rating) given Cn1nc(-c2c(F)cc3c4c2NC(=O)C(C)(C)N4C(=O)CO3)c(Cl)c1OC(F)F [1-27] as the entry.
Response: 60

----------
- System: large crabgrass (Digitaria sanguinalis, DIS)
- test method notes: Post-emerge test, large crabgrass
- Format: in vivo
- condition set: 250 g ai/ha, 14 days after application, rating scale 0-100 (0 no damage, 100 complete death)
Would you mind telling me the reported Post-emerge Herbicidal Activity DIS (phytotoxicity rating) of each entry?

Request: Tell me its Post-emerge Herbicidal Activity DIS (phytotoxicity rating) given Cn1c(C(F)(F)F)cc(=O)n(-c2c(F)cc3c4c2NC(=O)CN4C(=O)CO3)c1=O [1-1] as the entry.
Response: 0

Request: Tell me its Post-emerge Herbicidal Activity DIS (phytotoxicity rating) given CC(C)C1C(=O)Nc2c(N3C(=O)C4=C(CCCC4)C3=O)c(F)cc3c2N1C(=O)CO3 (centres unmarked) [1-78] as the entry.
Response: 0

Request: Tell me its Post-emerge Herbicidal Activity DIS (phytotoxicity rating) given O=C1CN2C(=O)COc3cc(F)c(N4C(=O)C5=C(CCCC5)C4=O)c(c32)N1 [1-37] as the entry.
Response: 0

Request: Tell me its Post-emerge Herbicidal Activity DIS (phytotoxicity rating) given Cn1nc(-c2c(F)cc3c4c2NC(=O)CN4C(=O)CO3)c(Cl)c1OC(F)F [1-25] as the entry.
Response: 60

Request: Tell me its Post-emerge Herbicidal Activity DIS (phytotoxicity rating) given CC1C(=O)Nc2c3c(cc(F)c2-n2c(=O)cc(C(F)(F)F)n(C)c2=O)OCC(=O)N31 (centres unmarked) [1-2] as the entry.
Response: 0

Request: Tell me its Post-emerge Herbicidal Activity DIS (phytotoxicity rating) given O=C1CN2C(=O)COc3cc(F)c(-c4ncc(C(F)(F)F)cc4Cl)c(c32)N1 [1-63] as the entry.
Response: 80

Request: Tell me its Post-emerge Herbicidal Activity DIS (phytotoxicity rating) given CCC1C(=O)Nc2c(-c3nn(C)c(OC(F)F)c3Cl)c(F)cc3c2N1C(=O)CO3 (centres unmarked) [1-28] as the entry.
Response: 15

Request: Tell me its Post-emerge Herbicidal Activity DIS (phytotoxicity rating) given C[C@H]1Oc2cc(F)c(-c3nn(C)c(C(F)(F)F)c3Cl)c3c2N(CC(=O)N3)C1=O [1-48] as the entry.
Response: 50

Request: Tell me its Post-emerge Herbicidal Activity DIS (phytotoxicity rating) given Cn1nc(-c2c(F)cc3c4c2NC(=O)C(c2ccccc2)N4C(=O)CO3)c(Cl)c1C(F)(F)F (centres unmarked) [1-21] as the entry.
Response: 0

Request: Tell me its Post-emerge Herbicidal Activity DIS (phytotoxicity rating) given Cn1nc(-c2c(F)cc3c4c2NC(=O)C(C)(C)N4C(=O)CO3)c(Cl)c1C(F)(F)F [1-15] as the entry.
Response: 50

Request: Tell me its Post-emerge Herbicidal Activity DIS (phytotoxicity rating) given CC1C(=O)N(C)c2c(-c3nn(C)c(OC(F)F)c3Cl)c(F)cc3c2N1C(=O)CO3 (centres unmarked) [1-62] as the entry.
Response: 30

Request: Tell me its Post-emerge Herbicidal Activity DIS (phytotoxicity rating) given Cn1nc(-c2c(F)cc3c4c2NC(=O)CN4C(=O)CO3)c(Cl)c1C(F)(F)F [1-13] as the entry.
Response: 55

Request: Tell me its Post-emerge Herbicidal Activity DIS (phytotoxicity rating) given Cn1nc(-c2c(F)cc3c4c2NC(=O)C(Cl)N4C(=O)CO3)c(Cl)c1OC(F)F (centres unmarked) [1-79] as the entry.
Response: 0

Request: Tell me its Post-emerge Herbicidal Activity DIS (phytotoxicity rating) given Cn1nc(-c2c(F)cc3c4c2NC(=O)C(c2ccccc2)N4C(=O)CO3)c(Cl)c1OC(F)F (centres unmarked) [1-33] as the entry.
Response: 25

Request: Tell me its Post-emerge Herbicidal Activity DIS (phytotoxicity rating) given C[C@H]1Oc2cc(F)c(-c3nn(C)c(OC(F)F)c3Cl)c3c2N(CC(=O)N3)C1=O [1-55] as the entry.
Response: 35

Request: Tell me its Post-emerge Herbicidal Activity DIS (phytotoxicity rating) given C[C@@H]1Oc2cc(F)c(-c3nn(C)c(C(F)(F)F)c3Cl)c3c2N(CC(=O)N3)C1=O [1-49] as the entry.
Response: 99

Request: Tell me its Post-emerge Herbicidal Activity DIS (phytotoxicity rating) given CC1C(=O)Nc2c(-c3ncc(C(F)(F)F)cc3Cl)c(F)cc3c2N1C(=O)CO3 (centres unmarked) [1-64] as the entry.
Response: 40

----------
Would you mind telling me the reported Pre-emerge crop damage CORN (phytotoxicity rating) of each entry?
- System: field corn (Zea mays L., var. Dekalb 535, CORN)
- test method notes: Pre-emerge test, crop damage field corn
- Format: in vivo
- condition set: pre-emerge, 250 g ai/ha, 14 days after application, rating scale 0-100 (0 no damage, 100 complete death)

Request: Tell me its Pre-emerge crop damage CORN (phytotoxicity rating) given Cc1nn(-c2c(F)cc3c4c2NC(=O)CN4C(=O)CO3)c(=O)n1C(F)F as the entry.
Response: 100

Request: Tell me its Pre-emerge crop damage CORN (phytotoxicity rating) given CCC1C(=O)Nc2c(-c3nn(C)c(OC(F)F)c3Cl)c(F)cc3c2N1C(=O)C(C)(C)O3 (centres unmarked) as the entry.
Response: 0

Request: Tell me its Pre-emerge crop damage CORN (phytotoxicity rating) given CC1C(=O)Nc2c(-c3ncc(C(F)(F)F)cc3Cl)c(F)cc3c2N1C(=O)CO3 (centres unmarked) as the entry.
Response: 100

Request: Tell me its Pre-emerge crop damage CORN (phytotoxicity rating) given C[C@@H]1Oc2cc(F)c(-c3nn(C)c(C(F)(F)F)c3Cl)c3c2N(CC(=O)N3)C1=O as the entry.
Response: 70

Request: Tell me its Pre-emerge crop damage CORN (phytotoxicity rating) given O=C1Nc2c(-c3ncc(C(F)(F)F)cc3Cl)c(F)cc3c2N(C(=O)CO3)C1c1ccccc1 (centres unmarked) as the entry.
Response: 5

Request: Tell me its Pre-emerge crop damage CORN (phytotoxicity rating) given CC(C)C1C(=O)Nc2c3c(cc(F)c2-n2c(=O)cc(C(F)(F)F)n(C)c2=O)OCC(=O)N31 (centres unmarked) as the entry.
Response: 100

Request: Tell me its Pre-emerge crop damage CORN (phytotoxicity rating) given CCC1C(=O)Nc2c(-c3nn(C)c(OC(F)F)c3Cl)c(F)cc3c2N1C(=O)CO3 (centres unmarked) as the entry.
Response: 85

Request: Tell me its Pre-emerge crop damage CORN (phytotoxicity rating) given Cn1nc(-c2c(F)cc3c4c2NC(=O)C(c2ccccc2)N4C(=O)CO3)c(Cl)c1C(F)(F)F (centres unmarked) as the entry.
Response: 0

Request: Tell me its Pre-emerge crop damage CORN (phytotoxicity rating) given Cc1nn(-c2c(F)cc3c4c2NC(=O)C(C)N4C(=O)CO3)c(=O)n1C(F)F (centres unmarked) as the entry.
Response: 100

Request: Tell me its Pre-emerge crop damage CORN (phytotoxicity rating) given CC1C(=O)Nc2c(-c3nn(C)c(C(F)(F)F)c3Cl)c(F)cc3c2N1C(=O)C(C)(C)O3 (centres unmarked) as the entry.
Response: 55

Request: Tell me its Pre-emerge crop damage CORN (phytotoxicity rating) given CCC1C(=O)Nc2c3c(cc(F)c2-n2c(=O)cc(C(F)(F)F)n(C)c2=O)OCC(=O)N31 (centres unmarked) as the entry.
Response: 100

Request: Tell me its Pre-emerge crop damage CORN (phytotoxicity rating) given Cn1nc(-c2c(F)cc3c4c2NC(=O)C(c2ccccc2)N4C(=O)CO3)c(Cl)c1OC(F)F (centres unmarked) as the entry.
Response: 0

Request: Tell me its Pre-emerge crop damage CORN (phytotoxicity rating) given CC1C(=O)N(C)c2c(-c3nn(C)c(OC(F)F)c3Cl)c(F)cc3c2N1C(=O)CO3 (centres unmarked) as the entry.
Response: 10

Request: Tell me its Pre-emerge crop damage CORN (phytotoxicity rating) given O=C1CN2C(=O)COc3cc(F)c(-n4nnn(CCCF)c4=O)c(c32)N1 as the entry.
Response: 5
